Cited source: patent US20020026053A1

- target_system: EGFR (Homo sapiens, UniProt P00533)
- Construct: endogenous in cells; host or cells: A431 cells (lysate, captured with SUMO1 anti-EGFR antibody)
- Sequence (P00533 25-1210): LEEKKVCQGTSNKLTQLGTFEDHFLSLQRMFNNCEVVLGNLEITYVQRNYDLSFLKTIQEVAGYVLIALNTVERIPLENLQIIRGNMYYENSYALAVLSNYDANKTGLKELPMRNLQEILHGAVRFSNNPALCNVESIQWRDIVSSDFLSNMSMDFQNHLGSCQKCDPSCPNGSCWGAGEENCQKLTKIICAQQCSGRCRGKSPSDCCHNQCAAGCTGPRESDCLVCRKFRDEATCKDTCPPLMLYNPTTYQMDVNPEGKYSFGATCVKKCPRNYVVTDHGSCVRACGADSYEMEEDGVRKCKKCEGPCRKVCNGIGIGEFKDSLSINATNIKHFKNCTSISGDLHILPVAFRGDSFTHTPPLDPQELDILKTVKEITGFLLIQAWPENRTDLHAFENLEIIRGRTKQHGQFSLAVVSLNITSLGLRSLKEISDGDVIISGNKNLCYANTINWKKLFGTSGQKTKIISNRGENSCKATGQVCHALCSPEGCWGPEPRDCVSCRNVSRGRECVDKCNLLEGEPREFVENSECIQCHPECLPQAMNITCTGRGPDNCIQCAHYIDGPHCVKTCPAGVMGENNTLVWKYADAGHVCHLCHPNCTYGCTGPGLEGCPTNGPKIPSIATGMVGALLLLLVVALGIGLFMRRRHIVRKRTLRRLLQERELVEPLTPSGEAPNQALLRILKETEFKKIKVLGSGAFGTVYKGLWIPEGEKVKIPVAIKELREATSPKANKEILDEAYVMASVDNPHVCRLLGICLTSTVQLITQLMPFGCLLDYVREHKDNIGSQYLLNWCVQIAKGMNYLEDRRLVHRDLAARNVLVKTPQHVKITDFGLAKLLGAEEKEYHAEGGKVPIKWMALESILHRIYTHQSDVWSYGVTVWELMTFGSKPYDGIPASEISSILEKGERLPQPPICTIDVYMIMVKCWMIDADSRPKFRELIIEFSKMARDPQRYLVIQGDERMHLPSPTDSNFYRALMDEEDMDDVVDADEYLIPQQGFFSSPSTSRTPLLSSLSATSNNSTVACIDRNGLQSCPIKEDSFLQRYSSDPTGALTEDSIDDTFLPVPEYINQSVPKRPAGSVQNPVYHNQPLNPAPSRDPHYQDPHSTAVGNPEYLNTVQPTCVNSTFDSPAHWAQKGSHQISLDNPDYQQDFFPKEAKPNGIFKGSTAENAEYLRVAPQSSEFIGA
- measurement_protocol: Biochemical EGFR Assay
- Parameters: concentration or dose not given beside the values
- applied_conditions: protocol P.167
measured_attribute: Biochem EGFR % Inhibition (P.167)

[
  {
    "compound": "Cc1ccc(Oc2cccc(C=C3C(=O)Nc4ccc(S(=O)(=O)N5CCOCC5)cc43)c2)cc1",
    "target_system": "EGFR (Homo sapiens, UniProt P00533)",
    "measured_attribute": "Biochem EGFR % Inhibition (P.167)",
    "reported_measurement": "13.1%"
  },
  {
    "compound": "Cc1c(Br)ccc2c1C(=Cc1ccc(OCc3ccccc3)cc1)C(=O)N2",
    "target_system": "EGFR (Homo sapiens, UniProt P00533)",
    "measured_attribute": "Biochem EGFR % Inhibition (P.167)",
    "reported_measurement": "1.5%"
  },
  {
    "compound": "CNS(=O)(=O)c1ccc2c(c1)C(=Cc1ccccc1OC)C(=O)N2",
    "target_system": "EGFR (Homo sapiens, UniProt P00533)",
    "measured_attribute": "Biochem EGFR % Inhibition (P.167)",
    "reported_measurement": "12.1%"
  },
  {
    "compound": "O=C1Nc2c(Br)cc(Br)cc2C1=Cc1ccc(O)cc1Cl",
    "target_system": "EGFR (Homo sapiens, UniProt P00533)",
    "measured_attribute": "Biochem EGFR % Inhibition (P.167)",
    "reported_measurement": "−5.5%"
  },
  {
    "compound": "CNS(=O)(=O)c1ccc2c(c1)C(=Cc1ccc(OC)c(O)c1)C(=O)N2",
    "target_system": "EGFR (Homo sapiens, UniProt P00533)",
    "measured_attribute": "Biochem EGFR % Inhibition (P.167)",
    "reported_measurement": "7.4%"
  },
  {
    "compound": "Cc1ccc(C=C2C(=O)Nc3ccc(Br)c(C)c32)c(C)c1",
    "target_system": "EGFR (Homo sapiens, UniProt P00533)",
    "measured_attribute": "Biochem EGFR % Inhibition (P.167)",
    "reported_measurement": "−0.7%"
  },
  {
    "compound": "Cc1c(Br)cc(Br)c2c1C(=Cc1cc(F)ccc1F)C(=O)N2",
    "target_system": "EGFR (Homo sapiens, UniProt P00533)",
    "measured_attribute": "Biochem EGFR % Inhibition (P.167)",
    "reported_measurement": "−17.6%"
  },
  {
    "compound": "CNS(=O)(=O)c1ccc2c(c1)C(=Cc1cc(F)ccc1F)C(=O)N2",
    "target_system": "EGFR (Homo sapiens, UniProt P00533)",
    "measured_attribute": "Biochem EGFR % Inhibition (P.167)",
    "reported_measurement": "−27.7%"
  },
  {
    "compound": "O=C1Nc2c(Br)cc(Br)cc2C1=CC1COc2ccccc2O1 (stereo not shown)",
    "target_system": "EGFR (Homo sapiens, UniProt P00533)",
    "measured_attribute": "Biochem EGFR % Inhibition (P.167)",
    "reported_measurement": "10.7%"
  },
  {
    "compound": "COc1ccc(Oc2cccc(C=C3C(=O)Nc4ccc(I)cc43)c2)cc1",
    "target_system": "EGFR (Homo sapiens, UniProt P00533)",
    "measured_attribute": "Biochem EGFR % Inhibition (P.167)",
    "reported_measurement": "19.8%"
  },
  {
    "compound": "Cc1c(Br)cc(Br)c2c1C(=Cc1ccc(OCc3ccccc3)cc1)C(=O)N2",
    "target_system": "EGFR (Homo sapiens, UniProt P00533)",
    "measured_attribute": "Biochem EGFR % Inhibition (P.167)",
    "reported_measurement": "−21.9%"
  },
  {
    "compound": "O=C1Nc2c(Br)cc(Br)cc2C1=Cc1ccnc2ccccc12",
    "target_system": "EGFR (Homo sapiens, UniProt P00533)",
    "measured_attribute": "Biochem EGFR % Inhibition (P.167)",
    "reported_measurement": "8.2%"
  },
  {
    "compound": "COc1ccc(C=C2C(=O)Nc3ccc(CCCl)cc32)cc1F",
    "target_system": "EGFR (Homo sapiens, UniProt P00533)",
    "measured_attribute": "Biochem EGFR % Inhibition (P.167)",
    "reported_measurement": "−43.4%"
  },
  {
    "compound": "O=C1Nc2ccc(I)cc2C1=Cc1ccc(Oc2ccccc2)cc1",
    "target_system": "EGFR (Homo sapiens, UniProt P00533)",
    "measured_attribute": "Biochem EGFR % Inhibition (P.167)",
    "reported_measurement": "26.4%"
  },
  {
    "compound": "Cc1c(Br)ccc2c1C(=Cc1cccc(OCc3ccccc3)c1)C(=O)N2",
    "target_system": "EGFR (Homo sapiens, UniProt P00533)",
    "measured_attribute": "Biochem EGFR % Inhibition (P.167)",
    "reported_measurement": "18.3%"
  },
  {
    "compound": "CNS(=O)(=O)c1ccc2c(c1)C(=Cc1ccc(O)cc1Cl)C(=O)N2",
    "target_system": "EGFR (Homo sapiens, UniProt P00533)",
    "measured_attribute": "Biochem EGFR % Inhibition (P.167)",
    "reported_measurement": "−19.8%"
  },
  {
    "compound": "Cc1ccc(C=C2C(=O)Nc3c(Br)cc(Br)c(C)c32)cc1",
    "target_system": "EGFR (Homo sapiens, UniProt P00533)",
    "measured_attribute": "Biochem EGFR % Inhibition (P.167)",
    "reported_measurement": "−28.9%"
  },
  {
    "compound": "COc1ccc(C=C2C(=O)Nc3ccc(CCCl)cc32)cc1C",
    "target_system": "EGFR (Homo sapiens, UniProt P00533)",
    "measured_attribute": "Biochem EGFR % Inhibition (P.167)",
    "reported_measurement": "−5.1%"
  },
  {
    "compound": "CNS(=O)(=O)c1ccc2c(c1)C(=Cc1cccc(Oc3ccc(C)cc3)c1)C(=O)N2",
    "target_system": "EGFR (Homo sapiens, UniProt P00533)",
    "measured_attribute": "Biochem EGFR % Inhibition (P.167)",
    "reported_measurement": "21.4%"
  },
  {
    "compound": "CCCCOc1ccc(C=C2C(=O)Nc3ccc(S(=O)(=O)Nc4ccc(C(F)(F)F)cc4)cc32)cc1",
    "target_system": "EGFR (Homo sapiens, UniProt P00533)",
    "measured_attribute": "Biochem EGFR % Inhibition (P.167)",
    "reported_measurement": "8.8%"
  },
  {
    "compound": "Cc1ccc(Oc2cccc(C=C3C(=O)Nc4c(Br)cc(Br)c(C)c43)c2)cc1",
    "target_system": "EGFR (Homo sapiens, UniProt P00533)",
    "measured_attribute": "Biochem EGFR % Inhibition (P.167)",
    "reported_measurement": "−52.0%"
  },
  {
    "compound": "COc1ccccc1C=C1C(=O)Nc2ccc(S(=O)(=O)Nc3ccc(C(F)(F)F)cc3)cc21",
    "target_system": "EGFR (Homo sapiens, UniProt P00533)",
    "measured_attribute": "Biochem EGFR % Inhibition (P.167)",
    "reported_measurement": "35.3%"
  },
  {
    "compound": "Cc1c(Br)cc(Br)c2c1C(=Cc1cccc(O)c1O)C(=O)N2",
    "target_system": "EGFR (Homo sapiens, UniProt P00533)",
    "measured_attribute": "Biochem EGFR % Inhibition (P.167)",
    "reported_measurement": "−53.8%"
  },
  {
    "compound": "Cc1ccc(C=C2C(=O)Nc3ccc(CCCl)cc32)c(C)c1",
    "target_system": "EGFR (Homo sapiens, UniProt P00533)",
    "measured_attribute": "Biochem EGFR % Inhibition (P.167)",
    "reported_measurement": "−0.5%"
  },
  {
    "compound": "O=C1Nc2ccc(I)cc2C1=Cc1cc(O)cc(O)c1",
    "target_system": "EGFR (Homo sapiens, UniProt P00533)",
    "measured_attribute": "Biochem EGFR % Inhibition (P.167)",
    "reported_measurement": "28.7%"
  },
  {
    "compound": "CCCCOc1ccc(C=C2C(=O)Nc3c(Br)cc(Br)c(C)c32)cc1",
    "target_system": "EGFR (Homo sapiens, UniProt P00533)",
    "measured_attribute": "Biochem EGFR % Inhibition (P.167)",
    "reported_measurement": "0.9%"
  },
  {
    "compound": "CN(C)CCCOc1ccc(C=C2C(=O)Nc3ccc(S(=O)(=O)Nc4ccc(C(F)(F)F)cc4)cc32)cc1",
    "target_system": "EGFR (Homo sapiens, UniProt P00533)",
    "measured_attribute": "Biochem EGFR % Inhibition (P.167)",
    "reported_measurement": "15.2%"
  },
  {
    "compound": "O=C1Nc2c(Br)cc(Br)cc2C1=Cc1cccc(OCc2ccccc2)c1",
    "target_system": "EGFR (Homo sapiens, UniProt P00533)",
    "measured_attribute": "Biochem EGFR % Inhibition (P.167)",
    "reported_measurement": "5.1%"
  },
  {
    "compound": "O=C1Nc2ccc(S(=O)(=O)N3CCOCC3)cc2C1=Cc1cccc(Oc2ccc(Cl)c(Cl)c2)c1",
    "target_system": "EGFR (Homo sapiens, UniProt P00533)",
    "measured_attribute": "Biochem EGFR % Inhibition (P.167)",
    "reported_measurement": "45.6%"
  },
  {
    "compound": "Cn1cc(C=C2C(=O)Nc3ccc(CCCl)cc32)c2ccccc21",
    "target_system": "EGFR (Homo sapiens, UniProt P00533)",
    "measured_attribute": "Biochem EGFR % Inhibition (P.167)",
    "reported_measurement": "27.9%"
  },
  {
    "compound": "O=C1Nc2ccc(I)cc2C1=Cc1cccc(O)c1O",
    "target_system": "EGFR (Homo sapiens, UniProt P00533)",
    "measured_attribute": "Biochem EGFR % Inhibition (P.167)",
    "reported_measurement": "22.9%"
  },
  {
    "compound": "Cn1cc(C=C2C(=O)Nc3c(Br)cc(Br)cc32)c2ccccc21",
    "target_system": "EGFR (Homo sapiens, UniProt P00533)",
    "measured_attribute": "Biochem EGFR % Inhibition (P.167)",
    "reported_measurement": "18.7%"
  },
  {
    "compound": "O=C1Nc2c(Br)cc(Br)cc2C1=Cc1cc(O)cc(O)c1",
    "target_system": "EGFR (Homo sapiens, UniProt P00533)",
    "measured_attribute": "Biochem EGFR % Inhibition (P.167)",
    "reported_measurement": "4.3%"
  },
  {
    "compound": "Cc1ccc(Oc2cccc(C=C3C(=O)Nc4ccc(Br)c(C)c43)c2)cc1",
    "target_system": "EGFR (Homo sapiens, UniProt P00533)",
    "measured_attribute": "Biochem EGFR % Inhibition (P.167)",
    "reported_measurement": "−30.5%"
  },
  {
    "compound": "O=C1Nc2ccc(S(=O)(=O)Nc3ccc(C(F)(F)F)cc3)cc2C1=Cc1cc(F)ccc1F",
    "target_system": "EGFR (Homo sapiens, UniProt P00533)",
    "measured_attribute": "Biochem EGFR % Inhibition (P.167)",
    "reported_measurement": "15.4%"
  },
  {
    "compound": "Cc1ccc(C)c(C=C2C(=O)Nc3ccc(Br)c(C)c32)c1",
    "target_system": "EGFR (Homo sapiens, UniProt P00533)",
    "measured_attribute": "Biochem EGFR % Inhibition (P.167)",
    "reported_measurement": "27.9%"
  },
  {
    "compound": "CNS(=O)(=O)c1ccc2c(c1)C(=Cc1ccc(OC)c(F)c1)C(=O)N2",
    "target_system": "EGFR (Homo sapiens, UniProt P00533)",
    "measured_attribute": "Biochem EGFR % Inhibition (P.167)",
    "reported_measurement": "33.8%"
  }
]
